Tested on: E. coli AG100A, ΔacrAB (efflux−)
Format: cell-based
Test Settings: sub-MIC C12K-7α8
Experimental: Bacteria were grown overnight in LB growth medium and diluted 10,000-fold in same medium. Synergistic effect of the combinations was assessed by determination of the fractional inhibitory concentration (FIC) where FIC=(MIC OAK in combination with antibiotic)/(MIC OAK alone)+(MIC antibiotic in combination)/(MIC antibiotic alone). Synergy was determined for FIC 0.5.
Test Readout: FIC
// return just the number, without any unit appended

For the compound CC1(C)S[C@@H]2[C@H](NC(=O)Cc3ccccc3)C(=O)N2[C@H]1C(=O)O , what FIC is on record?
1.0

----------
Test system: E. coli AG100A, ΔacrAB (efflux−)
Format: cell-based
Test Settings: sub-MIC C12K-7α8
Test Readout: FIC
// return just the number, without any unit appended

For the molecule CC[C@H]1OC(=O)[C@H](C)[C@@H](O[C@H]2C[C@@](C)(OC)[C@@H](O)[C@H](C)O2)[C@H](C)[C@@H](O[C@@H]2O[C@H](C)C[C@H](N(C)C)[C@H]2O)[C@](C)(OC)C[C@@H](C)C(=O)[C@H](C)[C@@H](O)[C@]1(C)O [Clarithromycin, clarithromycin] , what FIC is on record?
0.75

For the molecule Cc1onc(-c2ccccc2)c1C(=O)N[C@@H]1C(=O)N2[C@@H]1SC(C)(C)[C@@H]2C(=O)O [Oxacillin, oxacillin] , what FIC is on record?
0.75

For the molecule CO[C@H]1/C=C/O[C@@]2(C)Oc3c(C)c(O)c4c(O)c(c(/C=N/N5CCN(C)CC5)c(O)c4c3C2=O)NC(=O)/C(C)=C\C=C\[C@H](C)[C@H](O)[C@@H](C)[C@@H](O)[C@@H](C)[C@H](OC(C)=O)[C@@H]1C [Rifampin, rifampicin] , what FIC is on record?
0.75

Consider now this further molecule.
For the molecule CC[C@H]1OC(=O)[C@H](C)[C@@H](O[C@H]2C[C@@](C)(OC)[C@@H](O)[C@H](C)O2)[C@H](C)[C@@H](O[C@@H]2O[C@H](C)C[C@H](N(C)C)[C@H]2O)[C@](C)(O)C[C@@H](C)C(=O)[C@H](C)[C@@H](O)[C@]1(C)O [Erythromycin, erythromycin] , what FIC is on record?
0.86

----------
Assay Summary: Cochleate formation by light microscopy
Format: physicochemical
Set-up: key: or above (E!); excellent (E); good (G); poor (P); none (N)
Test Settings: DPPE:TOCL 75:25; 1:10 lipid to polymer ratio
Test Readout: Cochleate formation

For the compound CCCCCCCCCCCC(=O)NC(CCCCN)C(=O)NCCCCCCCC(=O)NC(CCCCN)C(=O)NCCCCCCCC(=O)NC(CCCCN)C(=O)NCCCCCCCC(=O)NC(CCCCN)C(=O)NCCCCCCCC(=O)NC(CCCCN)C(=O)NCCCCCCCC(=O)NC(CCCCN)C(=O)NCCCCCCCC(=O)NC(CCCCN)C(=O)NCCCCCCCC(=O)NC(CCCCN)C(=O)NCCCCCCCC(=O)NC(CCCCN)C(N)=O (stereo not drawn) [C12K-8α8, C12K(NC8K)8NH2] , what Cochleate formation is on record?
E

----------
Assay Summary: Cochleate formation by light microscopy
Assay type: physicochemical
Design: key: or above (E!); excellent (E); good (G); poor (P); none (N)
Test Settings: POPE:DOPG 75:25; 1:10 lipid to polymer ratio
Test Readout: Cochleate formation

For the compound CCCCCCCCCCCC(=O)N[C@@H](CCCCN)C(=O)NCCCCCCCC(=O)N[C@@H](CCCCN)C(=O)NCCCCCCCC(=O)N[C@@H](CCCCN)C(=O)NCCCCCCCC(=O)N[C@@H](CCCCN)C(=O)NCCCCCCCC(=O)N[C@@H](CCCCN)C(=O)NCCCCCCCC(=O)N[C@@H](CCCCN)C(N)=O [C12K-5α8, C12K(NC8K)5NH2] , what Cochleate formation is on record?
G

For the compound CCCCCCCCCCCC(=O)NC(CCCCN)C(=O)NCCCCCCCC(=O)NC(CCCCN)C(=O)NCCCCCCCC(=O)NC(CCCCN)C(=O)NCCCCCCCC(=O)NC(CCCCN)C(=O)NCCCCCCCC(=O)NC(CCCCN)C(=O)NCCCCCCCC(=O)NC(CCCCN)C(=O)NCCCCCCCC(=O)NC(CCCCN)C(=O)NCCCCCCCC(=O)NC(CCCCN)C(=O)NCCCCCCCC(=O)NC(CCCCN)C(N)=O (stereo not drawn) [C12K-8α8, C12K(NC8K)8NH2] , what Cochleate formation is on record?
N

----------
Assay Summary: Cochleate formation by light microscopy
Assay type: physicochemical
Design: key: or above (E!); excellent (E); good (G); poor (P); none (N)
Test Settings: DOPE:TOCL 75:25; 1:10 lipid to polymer ratio
Test Readout: Cochleate formation

For the molecule CCCCCCCCCCCC(=O)N[C@@H](CCCCN)C(=O)NCCCCCCCC(=O)N[C@@H](CCCCN)C(=O)NCCCCCCCC(=O)N[C@@H](CCCCN)C(=O)NCCCCCCCC(=O)N[C@@H](CCCCN)C(=O)NCCCCCCCC(=O)N[C@@H](CCCCN)C(=O)NCCCCCCCC(=O)N[C@@H](CCCCN)C(N)=O [C12K-5α8, C12K(NC8K)5NH2] , what Cochleate formation is on record?
N

----------
Assay Summary: Molecular charge and RP-HPLC hydrophobicity of polymers
Format: physicochemical
Test Settings: HPLC-RP gradient mobile phase
Test Readout: ACN (%) (percent acetonitrile at elution, estimated hydrophobicity)
State the answer as a number, implicitly in %.

Guide cases for ACN (%) (percent acetonitrile at elution, estimated hydrophobicity), answers given:
For the compound CCCCCCCCCCCC(=O)N[C@@H](CCCCN)C(=O)NCCCCCCCC(=O)N[C@@H](CCCCN)C(=O)NCCCCCCCC(=O)N[C@@H](CCCCN)C(=O)NCCCCCCCC(=O)N[C@@H](CCCCN)C(=O)NCCCCCCCC(=O)N[C@@H](CCCCN)C(=O)NCCCCCCCC(=O)N[C@@H](CCCCN)C(N)=O [C12K-5α8, C12K(NC8K)5NH2] , what ACN (%) (percent acetonitrile at elution, estimated hydrophobicity) is on record?
49.7

For the compound CCCCCCCCCCCC(=O)N[C@@H](CCCCN)C(=O)NCCCCCCCCCCCC(=O)N[C@@H](CCCCN)C(=O)NCCCCCCCCCCCC(=O)N[C@@H](CCCCN)C(=O)NCCCCCCCCCCCC(=O)N[C@@H](CCCCN)C(=O)NCCCCCCCCCCCC(=O)N[C@@H](CCCCN)C(=O)NCCCCCCCCCCCC(=O)N[C@@H](CCCCN)C(=O)NCCCCCCCCCCCC(=O)N[C@@H](CCCCN)C(=O)NCCCCCCCCCCCC(=O)N[C@@H](CCCCN)C(N)=O [C12K-7α12, C12K(NC12K)7NH2] , what ACN (%) (percent acetonitrile at elution, estimated hydrophobicity) is on record?
55.2

Consider now this further compound.
For the compound CCCCCCCCCCCC(=O)N[C@@H](CCCCN)C(=O)NCCCCCCCC(=O)N[C@@H](CCCCN)C(=O)NCCCCCCCC(=O)N[C@@H](CCCCN)C(=O)NCCCCCCCC(=O)N[C@@H](CCCCN)C(=O)NCCCCCCCC(=O)N[C@@H](CCCCN)C(=O)NCCCCCCCC(=O)N[C@@H](CCCCN)C(=O)NCCCCCCCC(=O)N[C@@H](CCCCN)C(N)=O [C12K-6α8, C12K(NC8K)6NH2] , what ACN (%) (percent acetonitrile at elution, estimated hydrophobicity) is on record?
50

----------
Assay Summary: Molecular charge and RP-HPLC hydrophobicity of polymers
Type: physicochemical
Test Settings: HPLC-RP gradient mobile phase
Test Readout: ACN (%) (percent acetonitrile at elution, estimated hydrophobicity)
State the answer as a number, implicitly in %.

Guide cases for ACN (%) (percent acetonitrile at elution, estimated hydrophobicity), answers given:
For the compound CCCCCCCCCCCC(=O)N[C@@H](CCCCN)C(=O)NCCCC(=O)N[C@@H](CCCCN)C(=O)NCCCC(=O)N[C@@H](CCCCN)C(=O)NCCCC(=O)N[C@@H](CCCCN)C(=O)NCCCC(=O)N[C@@H](CCCCN)C(=O)NCCCC(=O)N[C@@H](CCCCN)C(=O)NCCCC(=O)N[C@@H](CCCCN)C(=O)NCCCC(=O)N[C@@H](CCCCN)C(N)=O [C12K-7α4, C12K(NC4K)7NH2] , what ACN (%) (percent acetonitrile at elution, estimated hydrophobicity) is on record?
45.2

For the compound CCCCCCCCCCCC(=O)NC(CCCCN)C(=O)NCCCCCCCC(=O)NC(CCCCN)C(=O)NCCCCCCCC(=O)NC(CCCCN)C(=O)NCCCCCCCC(=O)NC(CCCCN)C(=O)NCCCCCCCC(=O)NC(CCCCN)C(=O)NCCCCCCCC(=O)NC(CCCCN)C(=O)NCCCCCCCC(=O)NC(CCCCN)C(=O)NCCCCCCCC(=O)NC(CCCCN)C(=O)NCCCCCCCC(=O)NC(CCCCN)C(=O)NCCCCCCCC(=O)NC(CCCCN)C(=O)NCCCCCCCC(=O)NC(CCCCN)C(=O)NCCCCCCCC(=O)NC(CCCCN)C(N)=O (stereo not drawn) [C12K-11α8, C12K(NC8K)11NH2] , what ACN (%) (percent acetonitrile at elution, estimated hydrophobicity) is on record?
42.2

Further cases:
For the compound NCCCCCCCCCCCC(=O)NC(CCCCN)C(=O)NCCCCCCCC(=O)NC(CCCCN)C(=O)NCCCCCCCC(=O)NC(CCCCN)C(=O)NCCCCCCCC(=O)NC(CCCCN)C(=O)NCCCCCCCC(=O)NC(CCCCN)C(=O)NCCCCCCCC(=O)NC(CCCCN)C(=O)NCCCCCCCC(=O)NC(CCCCN)C(=O)NCCCCCCCC(=O)NC(CCCCN)C(N)=O (stereo not drawn) [α12-7α8, NC12K(NC8K)7NH2] , what ACN (%) (percent acetonitrile at elution, estimated hydrophobicity) is on record?
36.9
